Biological target: T1, human 5T4-His protein (human, UniProt Q13641 32-355)
T1 construct: also called recombinant 5T4 protein (human 5T4-his tag); human 5T4 protein; not shown: His tag
T1 sequence (looked up): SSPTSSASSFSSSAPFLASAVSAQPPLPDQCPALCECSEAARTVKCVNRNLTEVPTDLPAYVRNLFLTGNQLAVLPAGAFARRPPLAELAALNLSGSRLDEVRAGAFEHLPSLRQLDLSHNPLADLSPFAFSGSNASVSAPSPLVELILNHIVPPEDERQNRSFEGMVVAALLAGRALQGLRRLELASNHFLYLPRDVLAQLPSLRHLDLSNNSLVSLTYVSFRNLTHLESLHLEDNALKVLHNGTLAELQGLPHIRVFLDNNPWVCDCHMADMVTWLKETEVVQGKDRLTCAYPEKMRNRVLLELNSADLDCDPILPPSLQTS
Assay: ELISA, coated antigen
Please go through the items and note down their EC50.
Numbers only, in nM.

286B4 chimeric antibody (antibody, V domains shown, chimeric mAb; also called 284B4-C) VH: DVQLHESGPGLVKPSQSLSLTCSVTGYSITNNYYWNWIRQFPGNNLEWMGYITYDGSNNYNPSLKNRISVTRDTSKNQFFLKLSSVTTEDTATYYCTRGGGQLRFDYWGQGTTLTVSS VL: SIVMTQTPKFLIVSAGDRVTITCKASQSVSNEVTWYQQKPGQSPKMLIYYASNRYTGVPDRFTGSGYGTDFTFTINTVQAEDLAIYFCQQDYSSPWTFGGGTKLEIK ... 0.35

I would be grateful if you could provide EC50 for each of the following entries.
1. 389G2 chimeric antibody (antibody, V domains shown, chimeric mAb) VH: QVQLQQPGTELVKPGASVKLSCKASGYTFTSYWMHWVKQRPEQGLEWIGNINPSNGNTNYNERFKSKATLTVDKSSSTAYMQLSSLTSEDSTVYYCARGGWDFDYWGQGTTLTVSS VL: QVVLTQSPAIMSASPGEKVTMTCSASSSVRYIHWYQQRSGTSPKRWIYDTSKLTSGVPVRFSGSGSGTSFSLTISSMEAEDAATYYCQQWTSKPPWTFGGGTKLEIK
2. 119G5 chimeric antibody (antibody, V domains shown, chimeric mAb) VH: QVQLQQSGPEVVKPGASVKISCKASGYTFTDYYMNWVKQSRGKSLEWIGDINPNNGGTNYNQKFKGKATLTVDKSSSTAYMELRSLTSEDSAVYYCAKEGPPGAMDYWGQGTSVTVSS VL: NIVMTQTPKFLLVSAGDRVTITCKASQSVSNHVAWYQQKPGQSPKLLIYYVSNRSIGVPDRFTGSGYGTDFTFTISTVQAEDLAVYFCQQVYSSPFTFGGGTRLEMK

stdout:
1: 0.23; 2: 0.32
